These measurements were taken from patent US6334996B1.

test: log D of the metal complexes; type: physicochemical; details: ^99mTc complex
RESULT_TYPE: logD

[a] CN(C)CC(=O)N[C@H](C(=O)N[C@@H](CS)C(=O)NCC(=O)O)C(C)(C)C [metal not drawn]
[b] CN(C)CC(=O)N[C@@H](CO)C(=O)N[C@@H](CS)C(=O)NCC(=O)O [metal not drawn]
Could you determine which record has the numerically smaller logD? Candidates: a and b Please respond with the label that marks your chosen entry. b
(b: -2.3, a: -1.3)
